Reported GI50 values for the following compounds.
- System: CCRF-CEM
- assay notes: NCI tumour cell line growth inhibition, 48 h
Calls of active or inactive are those of the source. No stated cut-off is given here; in the data, active = GI50 up to about 1.1 µM and inactive = higher.

Example compounds with recorded GI50:
>>> df
                                   compound  test_target      value_reported
0             FC(F)(Sc1ccccn1)c1nc2ccccc2o1     CCRF-CEM  65.2 µM (inactive)
1  NC(=O)CCC(NC(=O)Cc1ccccc1)C(=O)O (stereo unspecified)     CCRF-CEM  2320 µM (inactive)
2  O=C1c2ccccc2C(=O)c2c(NCC3CO3)cccc21 (stereo unspecified)     CCRF-CEM  1.43 µM (inactive)
3         CCOC(=O)C#Cc1ccc([N+](=O)[O-])cc1     CCRF-CEM     1.1 µM (active)
4  CCN(CC)CCCC(C)Nc1c(Sc2cnc3cc(Cl)ccc3c2NC(C)CCCN(CC)CC)cnc2cc(Cl)ccc12 (stereo unspecified)     CCRF-CEM   2.2 µM (inactive)

Query :: What does the data say about its GI50? Entry: C#Cc1cc(CN(CC(=O)OC(C)(C)C)CC(=O)OC(C)(C)C)nc(CN(CC(=O)OC(C)(C)C)CC(=O)OC(C)(C)C)c1
Result :: 2.96 µM (inactive)

Query :: What does the data say about its GI50? Entry: COc1ccc(-c2cc(=O)c3ccc(O)cc3o2)c(OC)c1OC
Result :: 42.8 µM (inactive)

Query :: What does the data say about its GI50? Entry: CCCCCCCCCCCCCS(=O)(=O)O
Result :: > 100 µM (inactive)

Query :: What does the data say about its GI50? Entry: O=C1/C(=C/c2ccc(O)cc2)Oc2ccccc21
Result :: 32.2 µM (inactive)

Query :: What does the data say about its GI50? Entry: N#CCOc1cccc(C2(N3CC=CCC3)CCCCC2)c1
Result :: 42.3 µM (inactive)

Query :: What does the data say about its GI50? Entry: CC(C)CCn1nc(N)c2nc3ccccc3nc21
Result :: 46.2 µM (inactive)

Query :: What does the data say about its GI50? Entry: CCCCCCCCCCCC(=O)C1=C(O)CC(O)CC1=O (stereo unspecified)
Result :: 62.2 µM (inactive)

Query :: What does the data say about its GI50? Entry: OC1CCCCCCCCCCC1[S+]1CCCC1.O[B-](F)(F)F (stereo unspecified)
Result :: > 100 µM (inactive)

Query :: What does the data say about its GI50? Entry: CC1=C2NCN(C)N=C2C(C#N)(C#N)C1(C#N)C#N
Result :: 2.22 µM (inactive)

Query :: What does the data say about its GI50? Entry: N=C(N)NCCCC(NC(=O)OCCCCCCn1ccc(N)nc1=O)C(=O)O (stereo unspecified)
Result :: > 100 µM (inactive)

Query :: What does the data say about its GI50? Entry: CC(=O)CC(N)=O
Result :: > 100 µM (inactive)

Query :: What does the data say about its GI50? Entry: COc1cc(CCc2ccc(OC(C)=O)cc2)cc(OC)c1OC
Result :: > 100 µM (inactive)

Query :: What does the data say about its GI50? Entry: C[N+](C)(C)CCC(=O)N1C/C(=C\c2ccccc2)C(=O)/C(=C/c2ccccc2)C1
Result :: 1.64 µM (inactive)
